- Assay target: recombinant PRL-2 (Homo sapiens)
- Construct: 6xHis (N, cleaved yes); made in house; host or cells: E. coli One Shot BL21 Star
- Procedure text: In vitro phosphatase assay (DiFMUP hydrolysis), PRL-2
- Assay type: biochemical
- Recorded conditions: FDA-approved drug screen; compared to DMSO
Counter-ions that a name gives are not always drawn.
Parameter % Phosphatase Activity (compared to DMSO) PRL-2: see the listing below.
Output spec: scalar in %, unitless text.

Enquiry: Requested field: % Phosphatase Activity (compared to DMSO) PRL-2. Item: Cc1nc(C(=O)NCC(=O)O)c(O)c2ccc(Oc3ccccc3)cc12
Return: 139

Next:
Enquiry: Requested field: % Phosphatase Activity (compared to DMSO) PRL-2. Item: NC(=O)c1ncn([C@@H]2O[C@H](CO)[C@@H](O)[C@H]2O)c1O
Return: 78

Enquiry: Requested field: % Phosphatase Activity (compared to DMSO) PRL-2. Item: CC1CNc2c(cccc2S(=O)(=O)N[C@@H](CCCNC(=N)N)C(=O)N2CC[C@@H](C)C[C@@H]2C(=O)O)C1 (some centres unmarked)
Return: 100

Enquiry: Requested field: % Phosphatase Activity (compared to DMSO) PRL-2. Item: Cl.NCC(=O)CCC(=O)O [5-Aminolevulinic acid HCl]
Return: 130

Enquiry: Requested field: % Phosphatase Activity (compared to DMSO) PRL-2. Item: N[C@@H](Cc1cc(I)c(Oc2cc(I)c(O)c(I)c2)c(I)c1)C(=O)O
Return: 92

Enquiry: Requested field: % Phosphatase Activity (compared to DMSO) PRL-2. Item: Cc1c(O)cccc1C(=O)N[C@@H](CSc1ccccc1)[C@H](O)CN1C[C@H]2CCCC[C@H]2C[C@H]1C(=O)NC(C)(C)C [Nelfinavir Mesylate]
Return: 91

Enquiry: Requested field: % Phosphatase Activity (compared to DMSO) PRL-2. Item: C[C@@H]1[C@H](O)[C@@H](C)/C=C/C=C/C=C/C=C/C=C/C=C/C=C/[C@H](O[C@@H]2O[C@H](C)[C@@H](O)[C@H](N)[C@@H]2O)C[C@@H]2O[C@](O)(C[C@@H](O)C[C@@H](O)[C@H](O)CC[C@@H](O)C[C@@H](O)CC(=O)O[C@H]1C)C[C@H](O)[C@H]2C(=O)O
Return: 92

Enquiry: Requested field: % Phosphatase Activity (compared to DMSO) PRL-2. Item: CC(C)NC[C@@H](O)COc1ccc(CC(N)=O)cc1 [(R)-(+)-Atenolol]
Return: 109

Enquiry: Requested field: % Phosphatase Activity (compared to DMSO) PRL-2. Item: Nc1[nH]c(=O)ncc1F
Return: 92

Enquiry: Requested field: % Phosphatase Activity (compared to DMSO) PRL-2. Item: CC(=O)Oc1cc2c(s1)CCN(C(C(=O)C1CC1)c1ccccc1F)C2 (centres unmarked) [Prasugrel Hydrochloride]
Return: 109

Enquiry: Requested field: % Phosphatase Activity (compared to DMSO) PRL-2. Item: Cl.N=C(N)NCCC[C@H](N)C(=O)O [L-Arginine HCl (L-Arg)]
Return: 91

Enquiry: Requested field: % Phosphatase Activity (compared to DMSO) PRL-2. Item: Cc1ccc(-c2ncc(Cl)cc2-c2ccc(S(C)(=O)=O)cc2)cn1
Return: 102

Enquiry: Requested field: % Phosphatase Activity (compared to DMSO) PRL-2. Item: C[C@@H]1CC(=O)NN=C1c1ccc(NN=C(C#N)C#N)cc1
Return: 58

Enquiry: Requested field: % Phosphatase Activity (compared to DMSO) PRL-2. Item: CC(C)(Oc1ccc(C(=O)c2ccc(Cl)cc2)cc1)C(=O)O
Return: 122

Enquiry: Requested field: % Phosphatase Activity (compared to DMSO) PRL-2. Item: CC(=O)Nc1nnc(S(N)(=O)=O)s1 [Acetazolamide]
Return: 97

----------
Parameter % Phosphatase Activity (compared to DMSO) PRL-2: see the listing below.
- Assay target: recombinant PRL-2 (Homo sapiens)
- Construct: 6xHis (N, cleaved yes); made in house; host or cells: E. coli One Shot BL21 Star
- Sequence (Q12974 1-167): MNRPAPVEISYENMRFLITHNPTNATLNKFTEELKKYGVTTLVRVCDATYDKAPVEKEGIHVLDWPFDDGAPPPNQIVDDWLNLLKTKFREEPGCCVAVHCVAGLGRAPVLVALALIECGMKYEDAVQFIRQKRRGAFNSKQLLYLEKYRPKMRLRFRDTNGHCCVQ
- Procedure text: In vitro phosphatase assay (DiFMUP hydrolysis), PRL-2;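 note: PRL-2 activity read as DiFMUP hydrolysis after 20 min at room temperature with drug, enzyme first pre-reduced at 4 °C for 20 min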
- Type: biochemical
- Recorded conditions: FDA-approved drug screen; compared to DMSO
Output spec: scalar in %, unitless text.

Enquiry: Requested field: % Phosphatase Activity (compared to DMSO) PRL-2. Item: C[C@@H]1[C@H](O)[C@@H](C)/C=C/C=C/CC/C=C/C=C/C=C/C=C/[C@H](O[C@H]2O[C@@H](C)[C@H](O)[C@@H](N)[C@H]2O)C[C@@H]2O[C@](O)(C[C@@H](O)[C@H](O)CC[C@@H](O)C[C@@H](O)C[C@@H](O)CC(=O)O[C@H]1C)C[C@H](O)[C@H]2C(=O)O
Return: 87

Enquiry: Requested field: % Phosphatase Activity (compared to DMSO) PRL-2. Item: CCOc1nc2cccc(C(=O)O)c2n1Cc1ccc(-c2ccccc2-c2nnn[nH]2)cc1
Return: 92

Enquiry: Requested field: % Phosphatase Activity (compared to DMSO) PRL-2. Item: COC(=O)N[C@H](C(=O)N1CC2(CC2)C[C@H]1c1nc(-c2ccc3c(c2)C(F)(F)c2cc(-c4ccc5[nH]c([C@@H]6[C@H]7CC[C@H](C7)N6C(=O)[C@@H](NC(=O)OC)C(C)C)nc5c4)ccc2-3)c[nH]1)C(C)C
Return: 115

Enquiry: Requested field: % Phosphatase Activity (compared to DMSO) PRL-2. Item: COc1cc2c(cc1Cc1cccc(Cl)c1F)c(=O)c(C(=O)O)cn2[C@H](CO)C(C)C
Return: 84

----------
- Assay target: recombinant PRL-3 (Homo sapiens, UniProt O75365)
- Construct: 6xHis (N, cleaved yes); made in house; host or cells: E. coli One Shot BL21 Star
- Sequence (O75365 whole entry): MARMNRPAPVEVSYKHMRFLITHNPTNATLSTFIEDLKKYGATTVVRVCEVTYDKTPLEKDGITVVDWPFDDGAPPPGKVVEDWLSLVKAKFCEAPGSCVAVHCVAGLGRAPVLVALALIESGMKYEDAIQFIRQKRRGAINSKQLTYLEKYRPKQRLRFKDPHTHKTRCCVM
- Procedure text: In vitro phosphatase assay (DiFMUP hydrolysis), PRL-3; note: test concentration or dose not given here
- Assay type: biochemical
- Recorded conditions: FDA-approved drug screen; compared to DMSO
Parameter % Phosphatase Activity (compared to DMSO) PRL-3: see the listing below.
Output spec: scalar in %, unitless text.

Enquiry: Requested field: % Phosphatase Activity (compared to DMSO) PRL-3. Item: CC(=O)OCC(CCn1cnc2cnc(N)nc21)COC(C)=O [Famciclovir]
Return: 79

Enquiry: Requested field: % Phosphatase Activity (compared to DMSO) PRL-3. Item: O=C(O)P(=O)(O)O [Foscarnet Sodium]
Return: 91

Enquiry: Requested field: % Phosphatase Activity (compared to DMSO) PRL-3. Item: NCCC(O)(P(=O)([O-])O)P(=O)([O-])O.[Na+].[Na+] [Pamidronate Disodium]
Return: 91

Next:
Enquiry: Requested field: % Phosphatase Activity (compared to DMSO) PRL-3. Item: C1=N/C2=N/c3ccc(OCCN4CCCC4)c(c3)COC/C=C/COCc3cccc(c3)C(=C1)N2 [Pacritinib (SB1518)]
Return: 78

Enquiry: Requested field: % Phosphatase Activity (compared to DMSO) PRL-3. Item: C=CC1=C(C(=O)O)N2C(=O)[C@@H](NC(=O)/C(=N\O)c3csc(N)n3)[C@H]2SC1 [Cefdinir]
Return: 88

Enquiry: Requested field: % Phosphatase Activity (compared to DMSO) PRL-3. Item: C[N+]1(C)CCC(=C(c2ccccc2)c2ccccc2)CC1 [Diphemanil Methylsulfate]
Return: 91

----------
- Assay target: recombinant PRL-3 (Homo sapiens)
- Construct: 6xHis (N, cleaved yes); made in house; host or cells: E. coli One Shot BL21 Star
- Procedure text: In vitro phosphatase assay (DiFMUP hydrolysis), PRL-3; note: test concentration or dose not given here
- Format: biochemical
- Recorded conditions: FDA-approved drug screen; activity compared to DMSO
Counter-ions that a name gives are not always drawn.
Parameter % Phosphatase Activity (compared to DMSO) PRL-3: see the listing below.
Output spec: scalar in %, unitless text.

Use these answered entries as a reference point.
Enquiry: Requested field: % Phosphatase Activity (compared to DMSO) PRL-3. Item: COc1ccccc1N1CCN(CCCNc2cc(=O)n(C)c(=O)n2C)CC1.Cl [Urapidil HCl]
Return: 92

Enquiry: Requested field: % Phosphatase Activity (compared to DMSO) PRL-3. Item: c1ccc(CC2=NCCN2)cc1 [Tolazoline HCl]
Return: 91

Enquiry: Requested field: % Phosphatase Activity (compared to DMSO) PRL-3. Item: CC(C(=O)O)c1ccc(C(=O)c2cccs2)cc1 (centres unmarked)
Return: 92

Enquiry: Requested field: % Phosphatase Activity (compared to DMSO) PRL-3. Item: O=C1NC(=O)[C@@H](c2cn3c4c(cccc24)CCC3)[C@@H]1c1c[nH]c2ccccc12 [Tivantinib (ARQ 197)]
Return: 90

Next:
Enquiry: Requested field: % Phosphatase Activity (compared to DMSO) PRL-3. Item: Cc1ccc(-n2nccn2)c(C(=O)N2CCN(c3nc4cc(Cl)ccc4o3)CC[C@H]2C)c1
Return: 89
